System: P. falciparum Dd2 Cytb A122D
Assay: SYBR Green ABS proliferation assay, NCGC00473217 selected clone F12
Format: cell-based, Plasmodium falciparum
Details: Plasmodium falciparum, DD2, NCGC00473217 selected clone F12; read-out: AC50 [μM], Cytb A122D (converted)
experimental_endpoint: AC50 (µM)

>  <record_smiles>
CCCN1C(CC2CCC2)=NS(=O)(=O)c2cc(NC(=O)c3cccs3)ccc21

>  <unit_label>
µM

>  <numeric_value>
1.35

$$$$
>  <record_smiles>
CCCN1C(CC(C)C)=NS(=O)(=O)c2cc(NC(=O)c3sccc3C)ccc21

>  <unit_label>
µM

>  <numeric_value>
2.83

$$$$
>  <record_smiles>
CCCN1C(CC2CCCCC2)=NS(=O)(=O)c2cc(NC(=O)c3cccs3)ccc21

>  <unit_label>
µM

>  <numeric_value>
1.53

$$$$
>  <record_smiles>
CCCN1C(CC(C)C)=NS(=O)(=O)c2cc(NC(=O)c3sccc3F)ccc21

>  <unit_label>
µM

>  <numeric_value>
1.31

$$$$
>  <record_smiles>
CCCN1C(CC(C)C)=NS(=O)(=O)c2cc(NC(=O)c3sccc3Cl)ccc21

>  <unit_label>
µM

>  <numeric_value>
0.603

$$$$
>  <record_smiles>
CCCN1C(c2ccccc2)=NS(=O)(=O)c2cc(NC(=O)c3ccc(F)cc3)ccc21

>  <unit_label>
µM

>  <numeric_value>
1.85

$$$$
>  <record_smiles>
CCCN1C(CC(C)C)=NS(=O)(=O)c2cc(NC(=O)c3cccs3)ccc21

>  <unit_label>
µM

>  <numeric_value>
2.82

$$$$

* * *

Tested on: Plasmodium falciparum Dd2 asexual blood stage parasites
Assay: microbe, parasite or virus in culture
Parameters: species or system Plasmodium falciparum Dd2 in human erythrocytes; single determination (one 11-point concentration-response curve)
Conditions: Plasmodium falciparum, DD2, Erythrocyte, 72 h; read-out: AC50
Overview of reported AC50 across a group of molecules:
experimental_endpoint: AC50 (nM)

>  <molecule>
OC(CNC1CCCc2ccccc21)COc1c(Cl)cccc1Cl (centres unmarked)

>  <experimental_system>
Plasmodium falciparum Dd2 asexual blood stage parasites

>  <unit_label>
nM

>  <numeric_value>
1680

$$$$
>  <molecule>
COc1ccccc1C(=O)N1CCC2(CC1)OC(=O)N(Cc1ccccc1C#N)C2(C)c1ccccc1 (centres unmarked)

>  <experimental_system>
Plasmodium falciparum Dd2 asexual blood stage parasites

>  <unit_label>
nM

>  <numeric_value>
15000

$$$$
>  <molecule>
CC(C)OCCCNc1sc([S+](=O)([O-])c2ccccc2)nc1[S+](=O)([O-])c1ccc(Cl)cc1

>  <experimental_system>
Plasmodium falciparum Dd2 asexual blood stage parasites

>  <unit_label>
nM

>  <numeric_value>
266

$$$$
>  <molecule>
COc1ccccc1N1CCN(C(=O)c2ccc3c(=O)n(Cc4ccc5c(c4)OCO5)c(=O)[nH]c3c2)CC1

>  <experimental_system>
Plasmodium falciparum Dd2 asexual blood stage parasites

>  <unit_label>
nM

>  <numeric_value>
2990

$$$$
>  <molecule>
Cc1ccccc1-n1c(=C(C#N)C(=O)Nc2ccccc2)sc(=Cc2ccco2)c1=O

>  <experimental_system>
Plasmodium falciparum Dd2 asexual blood stage parasites

>  <unit_label>
nM

>  <numeric_value>
5310

$$$$
>  <molecule>
CN1CCN(Cc2ccccc2Oc2ccc(C(F)(F)F)cn2)CC1

>  <experimental_system>
Plasmodium falciparum Dd2 asexual blood stage parasites

>  <unit_label>
nM

>  <numeric_value>
531

$$$$
>  <molecule>
CC(C)C(=O)NCC1CN(Cc2ccccc2)C(=O)c2c(ccnc2-c2ccc(OCC(=O)O)cc2)O1 (centres unmarked)

>  <experimental_system>
Plasmodium falciparum Dd2 asexual blood stage parasites

>  <unit_label>
nM

>  <numeric_value>
2110

$$$$
>  <molecule>
O=C(Nc1ccc2c(N3CCCCC3)ncnc2c1)c1ccc(F)c(F)c1

>  <experimental_system>
Plasmodium falciparum Dd2 asexual blood stage parasites

>  <unit_label>
nM

>  <numeric_value>
4730

$$$$

* * *

System: P. falciparum Dd2 (clone B2) asexual blood stage parasites
Assay: P. falciparum Dd2 asexual blood stage SYBR Green-I 72 h proliferation assay (qHTS)
Type: cell-based, Plasmodium falciparum
Conditions: averaged P. falciparum asexual blood stage potency, log10 of AC50 in M
Doc: threshold -6 M (exclusive). Items with Pf ABS Log AC50 (M) beneath it return 1; others return -1.

>  <compound>
COc1ccc(Nc2cc(C)c3ccc(O)cc3n2)cc1

>  <experimental_system>
P. falciparum Dd2 (clone B2) asexual blood stage parasites

>  <class_label>
1

$$$$
>  <compound>
OC(CN1CCN(c2ccccn2)CC1)Cn1c2ccc(Cl)cc2c2cc(Cl)ccc21 (stereo not drawn)

>  <experimental_system>
P. falciparum Dd2 (clone B2) asexual blood stage parasites

>  <class_label>
-1

$$$$
>  <compound>
CCOC(=O)c1c[nH]c2c(C)cc(C)cc2c1=O

>  <experimental_system>
P. falciparum Dd2 (clone B2) asexual blood stage parasites

>  <class_label>
-1

$$$$
>  <compound>
COc1ccc(C2c3[nH]c4ccccc4c3C[C@H]3C(=O)N(C4CCN(Cc5ccccc5)CC4)CC(=O)N23)cc1OC (stereo partly drawn)

>  <experimental_system>
P. falciparum Dd2 (clone B2) asexual blood stage parasites

>  <class_label>
-1

$$$$
>  <compound>
O=C(O)c1ccc(-c2nc3cnccc3[nH]2)cc1

>  <experimental_system>
P. falciparum Dd2 (clone B2) asexual blood stage parasites

>  <class_label>
-1

$$$$
>  <compound>
Cc1cc(Cl)c(S(=O)(=O)N2CCN(c3ccccn3)CC2)cc1OCC(=O)NC1CCCCC1

>  <experimental_system>
P. falciparum Dd2 (clone B2) asexual blood stage parasites

>  <class_label>
1

$$$$
>  <compound>
Cc1cc(O)c(CN2CCN(c3ccccc3)CC2)cc1C

>  <experimental_system>
P. falciparum Dd2 (clone B2) asexual blood stage parasites

>  <class_label>
-1

$$$$
>  <compound>
Oc1cc2c(cc1CN1CCN(c3ccccc3)CC1)CCC2

>  <experimental_system>
P. falciparum Dd2 (clone B2) asexual blood stage parasites

>  <class_label>
-1

$$$$
>  <compound>
O=C(/C=C/c1ccco1)NC(=S)Nc1ccccc1N1CCCC1

>  <experimental_system>
P. falciparum Dd2 (clone B2) asexual blood stage parasites

>  <class_label>
-1

$$$$
>  <compound>
COc1ccc(C2=C(Nc3ccc(C)cc3)c3ccccc3C2=O)cc1

>  <experimental_system>
P. falciparum Dd2 (clone B2) asexual blood stage parasites

>  <class_label>
-1

$$$$
>  <compound>
COc1ccc2[nH]c(C[C@@H]3C[C@@H](C(C)C)[C@H](CNCc4ccccc4OC)C=C3C)nc2c1

>  <experimental_system>
P. falciparum Dd2 (clone B2) asexual blood stage parasites

>  <class_label>
-1

$$$$
>  <compound>
COc1ccc(CCN2CCC(Nc3nc4ccccc4n3Cc3ccc(F)cc3)CC2)cc1

>  <experimental_system>
P. falciparum Dd2 (clone B2) asexual blood stage parasites

>  <class_label>
-1

$$$$
>  <compound>
CN1CCC(NCCC(c2ccc(F)cc2)c2ccc(Cl)cc2)CC1 (stereo not drawn)

>  <experimental_system>
P. falciparum Dd2 (clone B2) asexual blood stage parasites

>  <class_label>
-1

$$$$
>  <compound>
COC(=O)[C@H]1[C@H]2C[C@@H]3c4[nH]c5cc(OC)ccc5c4CCN3C[C@H]2C[C@@H](OC(=O)/C=C/c2cc(OC)c(OC)c(OC)c2)[C@@H]1OC

>  <experimental_system>
P. falciparum Dd2 (clone B2) asexual blood stage parasites

>  <class_label>
-1

$$$$
>  <compound>
Cc1cc(Nc2cccc(C(F)(F)F)c2)nc2ccc(NC(=O)c3cncc(Br)c3)cc12

>  <experimental_system>
P. falciparum Dd2 (clone B2) asexual blood stage parasites

>  <class_label>
-1

$$$$
>  <compound>
O=c1cc(-c2ccccc2)c2ccc3c(c2o1)CN(Cc1ccccc1)CO3

>  <experimental_system>
P. falciparum Dd2 (clone B2) asexual blood stage parasites

>  <class_label>
-1

$$$$
>  <compound>
CCCCCC(=O)O[C@]1(C(C)=O)CC[C@H]2[C@@H]3CCC4=CC(=O)CC[C@]4(C)[C@H]3CC[C@@]21C

>  <experimental_system>
P. falciparum Dd2 (clone B2) asexual blood stage parasites

>  <class_label>
-1

$$$$
>  <compound>
N=c1n(CCN2CCCCC2)c2ccccc2n1CC(=O)c1ccc(Cl)c(Cl)c1

>  <experimental_system>
P. falciparum Dd2 (clone B2) asexual blood stage parasites

>  <class_label>
-1

$$$$
>  <compound>
COc1ccc(-c2nc3sc(CCNC(=O)c4ccc(C(C)(C)C)cc4)c(C)n3n2)cc1

>  <experimental_system>
P. falciparum Dd2 (clone B2) asexual blood stage parasites

>  <class_label>
-1

$$$$
>  <compound>
Cc1nn(-c2nnc(NCc3ccccc3)nn2)c(C)c1Br

>  <experimental_system>
P. falciparum Dd2 (clone B2) asexual blood stage parasites

>  <class_label>
1

$$$$

Origin of measurements: paper PMC7822874
